Below are pKi values for Mu-type opioid receptor (Rattus norvegicus) collected from several publications.
The value called pKi is obtained by taking minus log10 of the concentration in mol/L.

[ask] Please report the recorded pKi for Cc1nccn1CC1CCc2c(c3ccccc3n2C)C1=O (configuration not stated) .
[reply] 5.54

[ask] What do we get for Cc1ccc2nc(/C=C/c3ccc(Cl)cc3)nc(NCCCCCCNC(=N)N)c2c1 ?
[reply] 6.52

[ask] What do we get for Oc1ccc(C[C@H]2CN3C(=CC4=NC[C@H](Cc5ccc(O)cc5)N4C[C@@H]3Cc3ccc(O)cc3)N2)cc1 ?
[reply] 6.26

[ask] What do we get for Cc1cccc2c(NCCCCCCN)nc(/C=C/c3ccc(Cl)cc3)nc12 ?
[reply] 6.03

[ask] What do we get for Cc1ccc2nc(/C=C/c3ccc(Cl)cc3)nc(N[C@H]3CCCC[C@H]3N)c2c1 (racemic) ?
[reply] 6.82

[ask] What do we get for NCCCCCCNc1nc(/C=C/c2ccc(Cl)cc2)nc2ccccc12 ?
[reply] 6.74

[ask] What do we get for CNC(c1ccccc1)C(C)(C)C(=O)NCc1ccccc1 (configuration not stated) ?
[reply] 7.02

[ask] What do we get for CC(C)C[C@H]1CN2C(=CC3=NC[C@H](C(C)C)N3C[C@@H]2Cc2ccccc2)N1CCc1ccccc1 ?
[reply] 5.56

[ask] What do we get for Cc1ccc2c(NCCCCCCN)nc(/C=C/c3ccc(Cl)cc3)nc2c1 ?
[reply] 6.70

[ask] What do we get for Cc1ccc(-n2nc(C)c3c2CC(C)(C)CC3=O)c(C)c1 ?
[reply] 5.41

[ask] What do we get for Cc1ccc2nc(/C=C/c3ccc(Cl)cc3)nc(N[C@H]3CC[C@H](N)CC3)c2c1 ?
[reply] 6.52

[ask] What do we get for Cc1ccc2nc(/C=C/c3ccc(Cl)cc3)nc(NCCCCNC(=N)N)c2c1 ?
[reply] 5.64

[ask] What do we get for COc1ccccc1S(=O)(=O)Nc1ccc(C)cc1Oc1ccc2c(N)nccc2c1 ?
[reply] 5.43

[ask] What do we get for NCCCCCCNc1nc(/C=C/c2ccc(Cl)cc2)nc2cc3ccccc3cc12 ?
[reply] 6.39

[ask] What do we get for Cc1ccc2nc(/C=C/c3ccc(Cl)cc3)nc(NCCCCCCN)c2c1 ?
[reply] 6.92

---

Below are Ki values for Mu-type opioid receptor (Rattus norvegicus, UniProt P33535) collected from several publications.

[ask] Please report the recorded Ki for CC(C)(C)c1ccc2nc(/C=C/c3ccc(Cl)cc3)nc(NCCCCCCN)c2c1 .
[reply] 0.38 µM

[ask] What do we get for C=CCN(CC=C)CCOC/C=C/c1ccccc1 ?
[reply] > 10 µM

[ask] What do we get for Cc1ccc2nc(/C=C/c3ccc(Cl)cc3)nc(N[C@H]3CCCC[C@@H]3N)c2c1 (racemic) ?
[reply] 0.18 µM

[ask] What do we get for NC(=S)c1ccc(C(=O)NC2CCN(Cc3ccccc3)CC2)cc1 ?
[reply] > 10 µM

[ask] What do we get for C=CCN(CC=C)CCOCCCc1ccccc1 ?
[reply] > 10 µM

[ask] What do we get for CCN(CC)CCOCCCc1ccccc1 ?
[reply] > 10 µM
